- target: threonine dehydratase (IlvA) (Salmonella enterica)
- Sequence (P20506 1-514): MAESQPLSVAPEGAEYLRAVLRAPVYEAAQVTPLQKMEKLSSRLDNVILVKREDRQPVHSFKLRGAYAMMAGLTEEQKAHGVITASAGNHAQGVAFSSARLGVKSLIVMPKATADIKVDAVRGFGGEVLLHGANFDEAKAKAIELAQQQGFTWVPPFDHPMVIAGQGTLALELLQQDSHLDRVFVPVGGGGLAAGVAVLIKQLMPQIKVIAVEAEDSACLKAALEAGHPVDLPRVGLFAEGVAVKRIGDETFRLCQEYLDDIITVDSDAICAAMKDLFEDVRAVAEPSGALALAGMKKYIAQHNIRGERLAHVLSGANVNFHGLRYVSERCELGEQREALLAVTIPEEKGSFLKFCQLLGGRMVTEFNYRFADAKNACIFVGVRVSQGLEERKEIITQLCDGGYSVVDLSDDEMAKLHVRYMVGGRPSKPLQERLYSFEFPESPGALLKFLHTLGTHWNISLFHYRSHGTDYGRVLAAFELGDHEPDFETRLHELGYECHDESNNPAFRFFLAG
observedProperty: Ki (mM)
Numeric answer only, unit mM assumed.

Endpoint output: Ki of NC[C@H](N)C(=O)O [Dap, L-2,3-diaminopropionate] . Value?
1.7

Every entry's value here was drawn from paper PMC5384650.
